EXPERIMENT SUMMARY: folding enthalpy; higher = less favourable; fluorescence melt of hairpins on a sequencing array, two-state fit
CONDITION DETAILS: sodium 0.088 M
METRIC NAME: folding enthalpy (kcal/mol)
Give your result in kcal/mol as a bare value.

Would you mind telling me what folding enthalpy value was observed for GCTAAGCGAAAGCTGGGC ((..(((....)))..)) ?
-17.7

What about this sequence? GATCAGTGATCTGATC ((((((....))))))
-36.1

What about this sequence? GATCCGGCTACGGATC ((((((....))))))
-40.2

What about this sequence? GATCAATTAATTGATC ((((((....))))))
-42

What about this sequence? GCGTGGCGAAAGCCGGGC ((..(((....)))..))
-27

What about this sequence? GCTAGCGAAAGCTTAGC ((((((....))).)))
-22.1

What about this sequence? GATCTATCCGTAGATC ((((((....))))))
-30.1

What about this sequence? GTTAACCGAAAGGTAAC (((.(((....))))))
-18.8

What about this sequence? GTTGACGGAAACGTTAGC (.(.(((....))).).)
-7.85

What about this sequence? GGACAGCGAAAGCTTTCC (((.(((....))).)))
-29.6

What about this sequence? GGCGGAGGAAACTCTGCC (((.(((....))).)))
-51.1

What about this sequence? GATCTTTAATAAGATC ((((((....))))))
-31.1

====

EXPERIMENT SUMMARY: folding enthalpy; higher = less favourable; fluorescence melt of hairpins on a sequencing array, two-state fit
CONDITION DETAILS: sodium 0.088 M
Provide the reported folding enthalpy of each item.
Please don't drop the unit; write it after the number.

Would you mind telling me what folding enthalpy value was observed for GCCCCCGAAAGGGCGGGC ((((((....)))..))) ?
-17.9 kcal/mol

What about this sequence? GATCAGGCAGCTGATC ((((((....))))))
-34.2 kcal/mol

What about this sequence? GGACTTGCGAAAGCATCC (((..(((....))))))
-9.43 kcal/mol

What about this sequence? GATTGGCGAAAGCCGATC (((.(((....))).)))
-25.8 kcal/mol

What about this sequence? GATCAGGTGCCTGATC ((((((....))))))
-37 kcal/mol

What about this sequence? GTCTGCGGAAACGCAAAC ((.((((....)))).))
-15.2 kcal/mol

What about this sequence? GAATCCCGAAAGGGTTC (((.(((....))))))
-17.9 kcal/mol

What about this sequence? GGCCCTTCGAAAGAAGCC (((..(((....))))))
-12.6 kcal/mol

What about this sequence? GCACGCGAAAGCGGCTGC ((((((....)))..)))
-14.7 kcal/mol

What about this sequence? GTTTGGCGAAAGCCCAAC (((.(((....))).)))
-19.1 kcal/mol

What about this sequence? GGACTGGGAAACCGGTTC (.((.((....)).)).)
-25.5 kcal/mol

What about this sequence? GAGGGGCCGAAAGGCCTC (((..(((....))))))
-7.41 kcal/mol

What about this sequence? GTCAACGAAAGTTTGGAC ((((((....)))..)))
-13.8 kcal/mol

What about this sequence? GCTACTGGAAACAGTGGC ((.((((....)))).))
-38.3 kcal/mol

What about this sequence? GAAATAGCGAAAGCTTTC (((..(((....))))))
-11.8 kcal/mol

What about this sequence? GTAACCGAAAGGTGGTAC ((((((....)))..)))
-12.3 kcal/mol

What about this sequence? GATCTGCTGACAGATC ((((((....))))))
-39.7 kcal/mol

What about this sequence? GCCTGCGAAAGCAAGGGC ((((((....)))..)))
-18.7 kcal/mol
